This collection of values is drawn from patent US20160362487A1.

Target Entity: T1, human IL-33 (R&D Systems, #3625-IL-010/CF) (human, UniProt O95760 112-270)
T1 sequence (looked up): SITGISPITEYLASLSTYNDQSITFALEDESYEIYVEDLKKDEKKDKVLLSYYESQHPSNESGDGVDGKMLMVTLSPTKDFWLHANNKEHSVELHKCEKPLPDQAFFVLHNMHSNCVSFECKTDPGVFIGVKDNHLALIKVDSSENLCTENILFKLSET
Procedure Details: cell-based or functional assay
Quantity: IC50, inhibition of 10 pM hIL-33 activation of HEK293/hST2/NFkB-luciferase cells
Please state the number and follow it with the unit.

| Binder | Result |
| --- | --- |
| H4H9662P (antibody, V domains shown, Human IgG4 Fc (H4H)) VH: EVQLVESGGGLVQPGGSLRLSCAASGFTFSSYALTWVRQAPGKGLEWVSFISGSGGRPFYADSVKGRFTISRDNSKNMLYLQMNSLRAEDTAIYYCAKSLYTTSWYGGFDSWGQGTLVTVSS VL: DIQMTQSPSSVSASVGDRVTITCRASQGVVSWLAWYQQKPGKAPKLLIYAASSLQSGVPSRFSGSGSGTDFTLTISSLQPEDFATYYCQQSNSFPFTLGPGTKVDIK | 2e-11 M |
| H4H9671P (antibody, human IgG4, V domains shown, Human IgG4 Fc (H4H)) VH: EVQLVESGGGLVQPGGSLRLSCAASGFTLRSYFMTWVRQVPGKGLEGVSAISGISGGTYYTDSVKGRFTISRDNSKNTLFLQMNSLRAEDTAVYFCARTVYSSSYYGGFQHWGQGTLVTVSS VL: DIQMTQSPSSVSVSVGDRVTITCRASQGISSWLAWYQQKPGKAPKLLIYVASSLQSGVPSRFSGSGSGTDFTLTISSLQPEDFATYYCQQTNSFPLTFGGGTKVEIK | 2.5e-11 M |

From here, focus on the item given below.
Query: GET /values?readout=IC50, inhibition of 10 pM hIL-33 activation of HEK293/hST2/NFkB-luciferase cells&item= H1M9568N (antibody, mouse IgG1, V domains shown, Human variable domains, mouse IgG1 Fc (H1M)) VH: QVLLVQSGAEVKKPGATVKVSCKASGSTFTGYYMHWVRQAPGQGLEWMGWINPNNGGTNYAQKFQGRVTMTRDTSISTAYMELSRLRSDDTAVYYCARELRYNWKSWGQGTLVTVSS VL: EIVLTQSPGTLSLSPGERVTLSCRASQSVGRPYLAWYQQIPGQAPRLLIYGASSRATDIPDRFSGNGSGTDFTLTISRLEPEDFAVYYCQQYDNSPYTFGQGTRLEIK
Result: 2.5e-10 M
